System: XIP peptide (Xip251-270)
Test: small-molecule binders of XIP peptide, primary screen, biochemical, small-molecule microarray, fluorescence 635/667 nm, 0.5 µg/mL protein (AID 1183)
Conditions: small-molecule microarray binding, fluorescence 635 nm; higher = more signal

Compound: COC(=O)[C@@]1(Cc2ccc(F)cc2)[C@@H]2C(=CC(=O)[C@H]2CC(=O)C(=O)N(C)C)CN1C(=O)c1ccccc1
Assayed target: XIP peptide (Xip251-270)
composite z-score: 0.472
//
Compound: C=CCC(OC(C)=O)[C@@H]1[C@@H](N(Cc2cc3ccccc3o2)C(=O)Cc2ccc(F)cc2)c2cc(OCCCO)ccc2N1C(=O)Cc1ccc(OC)cc1 (some centres not stated)
Assayed target: XIP peptide (Xip251-270)
composite z-score: -0.0246
//
Compound: CO[C@@H]1COC(=O)[C@@H]2CCCN2C(=O)[C@@H](C)COC(=O)[C@H](COCc2ccccc2)NC(=O)CC=C[C@H]1C
Assayed target: XIP peptide (Xip251-270)
composite z-score: 0.0728
//
Compound: O=C1NC(=O)C2C1C=CC(C(O)Cc1ccccc1)N2Nc1ccccn1 (configuration not stated)
Assayed target: XIP peptide (Xip251-270)
composite z-score: 0.804
//
Compound: CCCNC(=O)OC[C@H]1O[C@H](CCON=C[C@@H](OC)[C@H](C)C=CCC(=O)OC)C=C[C@@H]1Oc1ccc(OC)cc1
Assayed target: XIP peptide (Xip251-270)
composite z-score: 0.162
//
Compound: CC(C)c1ccc(NN2C(C(O)c3ccc4c(c3)OCO4)C=CC3C(=O)N(c4ccccc4)C(=O)C32)cc1 (configuration not stated)
Assayed target: XIP peptide (Xip251-270)
composite z-score: 0.665
//
Compound: O=C1C[C@@H](O)[C@@H](O)[C@@H]2[C@@H]3C(=O)N(Cc4ccc5c(c4)OCO5)C(=O)[C@@H]3CC[C@@H]12
Assayed target: XIP peptide (Xip251-270)
composite z-score: 0.353

====

System: XIP peptide (Xip251-270)
Test: small-molecule binders of XIP peptide, primary screen, biochemical, small-molecule microarray, fluorescence 635/667 nm, 0.5 µg/mL protein (AID 1183)
Conditions: small-molecule microarray binding, fluorescence 635 nm; higher = more signal

Smiles string: C[C@@H](c1ccccc1)N1C(=O)[C@H]2[C@H]3[C@H](O)C=CC(=O)[C@@H]3CC[C@H]2C1=O
composite z-score: 0.014
//
Smiles string: CCCC[C@@H]1C[C@H]1[C@@H](NS(=O)(=O)c1cccc2cccnc12)c1ccc(-c2ccccc2)cc1
composite z-score: -0.239
//
Smiles string: O=C1[C@H]2[C@H]3[C@H](O)[C@H](O)CC(=NO[C@@H]4O[C@H](CO)[C@@H](O)[C@H](O)[C@H]4O)[C@@H]3CC[C@H]2C(=O)N1Cc1ccc2c(c1)OCO2
composite z-score: 0.567
//
Smiles string: C#C[C@@H]1Oc2ccccc2S(=O)(=O)N2CCC[C@H]12
composite z-score: -0.149
//
Smiles string: O=C1c2ccccc2[C@@]2(Cc3ccccc3N(C3CC3)C2=O)[C@H](c2ccc(CO)cc2)N1Cc1ccccc1C(F)(F)F
composite z-score: 0.926
//
Smiles string: CC(C)[C@H](NC(=O)OC(C)(C)C)[C@@H](O)CC(=O)OC(C)(C)C
composite z-score: -0.4
//
Smiles string: CCN1C(=O)[C@H]2[C@H]3[C@H](O)[C@H](O)CC(=NOCC=C(C)CCC=C(C)C)[C@H]3CC[C@H]2C1=O
composite z-score: 0.762
//
Smiles string: NC(=O)NCC#Cc1ccc2c(c1)[C@]1(C(=O)N2)[C@H](c2ccc(O)cc2)N2[C@H](c3ccccc3)[C@H](c3ccccc3)OC(=O)[C@H]2[C@@H]1C(=O)N1CCCCCCC1
composite z-score: 0.469
